folding stability dG overview
B1: 5KPH (parent)
chain: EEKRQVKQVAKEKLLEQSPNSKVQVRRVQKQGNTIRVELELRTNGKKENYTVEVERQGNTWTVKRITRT

variants of: B1; assay: folding stability dG (cDNA display proteolysis); higher = more stable; conditions: PBS, room temperature
Attribute Measured: folding stability dG (kcal/mol)

>  <Mutant Code>
N33P

>  <Test Value>
3.55

$$$$
>  <Mutant Code>
V52T

>  <Test Value>
1.61

$$$$
>  <Mutant Code>
K7L

>  <Test Value>
4.49

$$$$
>  <Mutant Code>
I66L

>  <Test Value>
3.25

$$$$
>  <Mutant Code>
Y50L

>  <Test Value>
2.84

$$$$
